// values below are reported self-cleavage
B1: CPEB3 Ribozyme (parent)
chain: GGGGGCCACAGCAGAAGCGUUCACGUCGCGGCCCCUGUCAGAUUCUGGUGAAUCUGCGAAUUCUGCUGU

# Variants of: B1
# PROCEDURE_DETAILS: self-cleavage, relative activity (ratio to wild type); higher = more cleavage; co-transcriptional

Known results for variants:
GGGGGCCACAGCAGAAGCGUCCACGACGCGGCCCCUGUCAGAUUCUGGUGAAUCUGCGAAUUCUGCUGU [U21C U26A]; 0.216
GGGGGCCACAGCAGAAGCGUUCACGUCGCAGCCCCUGUCAGAUUCUGGUGAAUCUGCGAAUUGUGCUGU [G30A C63G]; 0.483
GGGGGCCACAGCAGAAGCGUUCACGUCGCGGUCCCUGUCAGAUUCUGUUGAAUCUGCGAAUUCUGCUGU [C32U G48U]; 0.964
GGGGGCCACAGCAGAAGCGUUGACGACGCGGCCCCUGUCAGAUUCUGGUGAAUCUGCGAAUUCUGCUGU [C22G U26A]; 0.144
GGGGGCCACGGCAGAAGAGUUCACGUCGCGGCCCCUGUCAGAUUCUGGUGAAUCUGCGAAUUCUGCUGU [A10G C18A]; 0.0954

Which self-cleavage is listed for GGGGGCCACAGCAGAAGCGUUCACGUCGCGGCCCGUGUCAGAUUCUGGUGAAUCUGCAAAUUCUGCUGU [C35G G58A] ?
0.243

Try this variant too: GGGGGCCACAGCAGAAGCGUUCACGUCGCGGCCCAUGUCAGAUUCCGGUGAAUCUGCGAAUUCUGCUGU [C35A U46C]
0.275

Try this variant too: GGGGUCCACAGCAGACGCGUUCACGUCGCGGCCCCUGUCAGAUUCUGGUGAAUCUGCGAAUUCUGCUGU [G5U A16C]
0.042

Try this variant too: GGGGGCCACAGCAGAAGCGUUCACGUCGCGGCCCCUGUCAGAUCCUCGUGAAUCUGCGAAUUCUGCUGU [U44C G47C]
0.963

Try this variant too: GGGGGCCACAGCAGAAGCGUUCACGUCGCGGCCCCUGUCAGAUGCUGGUGAAUAUGCGAAUUCUGCUGU [U44G C54A]
0.596

Where do the numbers come from? From the RNAGym collection of RNA variant scans (doi:10.7554/elife.80360).
